tested-system: T1, recombinant memapsin 2 (human, UniProt P56817 14-454, limits assumed)
T1 construct: also called M2; beta-secretase
T1 sequence (P56817 14-454 limits assumed): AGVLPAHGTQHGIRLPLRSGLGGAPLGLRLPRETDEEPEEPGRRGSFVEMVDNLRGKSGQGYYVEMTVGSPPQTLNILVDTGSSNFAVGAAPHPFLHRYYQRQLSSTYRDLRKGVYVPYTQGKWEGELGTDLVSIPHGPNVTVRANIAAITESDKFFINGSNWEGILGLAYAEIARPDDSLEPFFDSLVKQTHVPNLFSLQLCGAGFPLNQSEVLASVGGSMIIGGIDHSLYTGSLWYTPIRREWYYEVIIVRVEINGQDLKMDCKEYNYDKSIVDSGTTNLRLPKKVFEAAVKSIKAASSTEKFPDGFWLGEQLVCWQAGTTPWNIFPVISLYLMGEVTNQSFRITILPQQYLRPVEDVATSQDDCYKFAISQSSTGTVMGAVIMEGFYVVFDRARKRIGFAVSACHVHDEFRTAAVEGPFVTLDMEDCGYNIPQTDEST
experiment-notes: enzyme inhibition with a synthetic fluorogenic peptide substrate
No end group written: not given here.
measure-name: Ki (nM)
Answers are plain numbers, in nM.

Give the reported value of Ki for this record: VNLAAEF (also: Leu-Ala peptide bond replaced by hydroxyethylene isostere -CH(OH)-CH2-, also called OMR99-1; Val-Asn-Leu*Ala-Ala-Glu-Phe) [OM99-1]
30
